For each of the compounds below, state its TGI.
System: DMS 273 small cell lung
test description: NCI tumour cell line growth inhibition, 48 h

Tested on DMS 273 small cell lung, the item "CCCCCCn1c(SCC)c2ccccc2c1-c1nc(F)nc(F)n1" showed TGI equal to > 100 µM

Short answer on DMS 273 small cell lung for CCCC(O)[C@@H](O)c1ccc2c(c1O)C(=O)c1c(OC)cccc1C2=O (stereo partly specified) , TGI: > 100 µM

Measured TGI for this entry "COC(=O)CCC(=O)N1Cc2cc(C)ccc2N(C(=O)CCC(=O)OC)Cc2cc(C)ccc21" on DMS 273 small cell lung: > 100 µM

Test item "CCOC(=O)CSc1ccnc(=O)[nH]1" ; DMS 273 small cell lung; reported TGI was > 100 µM

Recorded TGI for "COC(=O)c1[nH]c(=S)[nH]c(=O)c1-c1ccc(Cl)cc1" on DMS 273 small cell lung was > 50 µM

Recorded TGI for Nc1cc(=O)[nH]c(SC2=NC(N)CC(O)C2)n1 (stereo unspecified) on DMS 273 small cell lung was > 100 µM

Value (TGI, DMS 273 small cell lung) for record "O=C(CCn1[nH]c(=O)c(Cl)c(Cl)c1=O)NOCCCc1ccccc1" = > 100 µM

Let me check: "CN1CCc2c1nc(-c1ccccc1)c1c2N(C)CC1" , system DMS 273 small cell lung, measured TGI is > 100 µM

Reading of TGI for C=C1C(=O)OC2CC3(C)C=CC(=O)C(=C)C3CC12 (stereo unspecified) with DMS 273 small cell lung: 2.64 µM

# "CCC[CH2][Sn]([CH2]CCC)([O]C(C)=O)[O]C(C)=O" with DMS 273 small cell lung: TGI is 7.04 µM

DMS 273 small cell lung data for "COc1cc(/C=C/C(=O)c2sc(-n3nc(-c4ccccc4)cc3-c3ccccc3)nc2C)ccc1O" ; its TGI: > 100 µM

Tested on DMS 273 small cell lung: CN(C(=O)C12C3C4C1C1C2C3C41I)C(C)(C)C (stereo unspecified) . Observed TGI: > 100 µM

Recorded TGI for C=C1C(=O)O[C@H]2C[C@@H](C)[C@@H]3CC(=O)OC[C@@]3(C)CC12 (stereo partly specified) on DMS 273 small cell lung was > 100 µM

Record for "COC(=O)[C@@H]1CSC(=S)N1C(=O)C[C@H]1CC=CC[C@H]1CC(=O)Sc1ccccc1" under target or system DMS 273 small cell lung: TGI reported as 44.1 µM

For the compound NCC1(N2CCOCC2)C2CCCC21CO (stereo unspecified) , the measured TGI on DMS 273 small cell lung was > 100 µM

Given the compound COC12C=CC(CC1)c1c(O)ccc(O)c12 (stereo unspecified) and test system DMS 273 small cell lung, the measured TGI is > 87 µM
